Sequence of the target: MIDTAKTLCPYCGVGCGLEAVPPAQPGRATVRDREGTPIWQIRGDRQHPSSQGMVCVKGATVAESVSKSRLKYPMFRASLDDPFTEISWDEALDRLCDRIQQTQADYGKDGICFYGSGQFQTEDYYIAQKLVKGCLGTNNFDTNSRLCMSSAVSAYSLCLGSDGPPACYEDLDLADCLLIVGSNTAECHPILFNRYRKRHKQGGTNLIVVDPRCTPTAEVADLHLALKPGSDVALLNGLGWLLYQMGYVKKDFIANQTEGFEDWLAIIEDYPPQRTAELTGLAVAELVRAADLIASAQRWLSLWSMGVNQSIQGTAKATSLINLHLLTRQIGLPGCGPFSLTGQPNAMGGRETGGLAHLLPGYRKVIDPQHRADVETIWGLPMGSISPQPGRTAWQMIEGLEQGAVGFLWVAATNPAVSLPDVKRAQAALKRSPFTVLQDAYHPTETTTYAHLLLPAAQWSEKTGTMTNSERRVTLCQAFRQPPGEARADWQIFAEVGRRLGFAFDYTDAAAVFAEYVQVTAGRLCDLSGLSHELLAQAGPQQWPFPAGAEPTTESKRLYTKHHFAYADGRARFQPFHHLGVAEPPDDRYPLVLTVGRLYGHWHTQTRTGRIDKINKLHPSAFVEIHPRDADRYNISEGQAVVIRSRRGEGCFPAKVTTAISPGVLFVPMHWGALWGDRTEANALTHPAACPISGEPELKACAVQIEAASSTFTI
measured.attribute: Kd
Write your answer as a measured quantity: the number, then the unit.

Ask | Determine from records and report Kd for O=[N+]([O-])O [nitrate]
Reply | 1 µM

These data points were gathered from paper PMC3741069.
